ASSAY_METHOD_TEXT: Plasma pharmacokinetics of SHR9146 in mice (LC-MS/MS, non-compartmental analysis)
Format: in vivo, ICR mice
MEASUREMENT_CONTEXT: male, ICR, mouse, plasma, po, 80 mg/kg, 80 mg/kg i.g. single dose; male mice; plasma; read-out: t1/2 (converted)
QUANTITY_KIND: half-life (h)
Give bare numbers, in h.

Indicate its recorded half-life; the compound in question is `OCCn1cc(-c2ccc(N3CCC([C@H]4c5c(F)cccc5-c5cncn54)CC3)cc2)cn1` 3.3

* * *

ASSAY_METHOD_TEXT: Tissue distribution of SHR9146 in mice after oral gavage of 40 mg/kg
Assay type: in vivo, ICR mice
MEASUREMENT_CONTEXT: male, ICR, mouse, liver, po, 40 mg/kg, male, 6 h, 40 mg/kg oral gavage, Mean (n=3); read-out: SHR9146 concentration in Liver
QUANTITY_KIND: concentration at 6 h (ng/g)
Give bare numbers, in ng/g.

Answer with reported concentration at 6 h of `OCCn1cc(-c2ccc(N3CCC([C@H]4c5c(F)cccc5-c5cncn54)CC3)cc2)cn1` 633
